All values here come from the supplement of paper PMC9170038.

System: MS2 coat protein
Assay: apparent KD of MS2 coat protein; designed switch direction (-1 OFF switch, 1 ON switch): 1; higher = weaker reporter binding
Details: input ligand: none
reported.property: apparent KD of MS2 coat protein

Answered examples (3):
seq.string	apparent KD of MS2 coat protein
UUAACAUGAGGAUCACCCAUGUAUAGGGAGUUUGCAAUUUGACAGGAUAUUGAAGAUUUAUAUAGCAAGAAGGGUCGUUAGUCU [JR_SSNG3_Sub005] (Eterna round: R96, puzzle: Same State NG 3)	53.6 nM
AUUUGUAAUGCAGGAUAUGAUUAACAUGAGGAUCACCCAUGUGGUGUUGUGAGUAAGGAGAGUGAUCAGAAGGGCAUUUUUUUU [JMF's solution 98] (Eterna round: R96, puzzle: Same State NG 2)	526 nM
ACAUGAGACUUAGGAUAUCUUGUACCUACAUGUGACAUGAGGAUCACCCAUGUGGUAAGUAUGAGAGAGAAGGAAGAGAUAUGU [Equivalence 37 - Jieux - Same State NG 2] (Eterna round: R96, puzzle: Same State NG 2)	23.2 nM

Consider the record given below.
Query string: May I ask what apparent KD of MS2 coat protein has been recorded for GCUCGAUGAUAGUCCUACAUGAGGAUCACCCAUGUAAGUGGGCAGGAUAUCUACAUGCAGAAUGUAGAGAAGGGCCCGUCGAGC [SameState NG3 #56] (Eterna round: R96, puzzle: Same State NG 3) ?
Result string: 23.2 nM
